- STUDY TARGET: human Tissue Factor (hTF) (human, UniProt P13726 33-295)
- METHOD NOTES: cell-based or functional assay
EXPERIMENTAL ENDPOINT: IC50, cell viability of HPAF-II cells, Primary ADC, Continuous (FIG. 22E)

Examples with answers:
anti-TF antibody 25G1 conjugated to MC-vc-PAB-MMAE (antibody, IgG1, V domains shown, MC-vc-PAB-MMAE on cysteines of the partially reduced antibody (chain and positions not stated), DAR 3-4, Antibody-drug conjugate (primary ADC) of the IgG1 antibody; also called 25G1 ADC) VH: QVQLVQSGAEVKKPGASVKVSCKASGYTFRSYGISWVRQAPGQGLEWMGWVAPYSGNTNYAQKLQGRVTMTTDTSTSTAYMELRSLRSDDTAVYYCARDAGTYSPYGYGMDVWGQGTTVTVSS VL: DIQMTQSPSTLSASVGDRVTITCRASHSIDSWLAWYQQKPGKAPKLLIYKASYLESGVPSRFSGSGSGTEFTLTISSLQPDDFATYYCQLFQSLPPFTFGGGTKVEIK ... 0.04 nM
anti-TF antibody 39A conjugated to MC-vc-PAB-MMAE (antibody, IgG1, V domains shown, MC-vc-PAB-MMAE on cysteines of the partially reduced antibody (chain and positions not stated), DAR 3-4, Antibody-drug conjugate (primary ADC) of the IgG1 antibody; also called 39A ADC) VH: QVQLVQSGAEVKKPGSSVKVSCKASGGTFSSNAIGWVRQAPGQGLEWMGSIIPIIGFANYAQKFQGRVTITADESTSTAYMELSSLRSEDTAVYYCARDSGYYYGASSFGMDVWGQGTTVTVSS VL: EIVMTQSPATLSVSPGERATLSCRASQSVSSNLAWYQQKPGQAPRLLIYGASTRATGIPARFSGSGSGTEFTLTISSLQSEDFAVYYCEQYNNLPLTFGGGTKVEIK ... 0.04 nM

Now for a further binder.
Enquiry: Give reported IC50, cell viability of HPAF-II cells, Primary ADC, Continuous (FIG. 22E) value for anti-TF antibody 43D7 conjugated to MC-vc-PAB-MMAE (antibody, IgG1, V domains shown, MC-vc-PAB-MMAE on cysteines of the partially reduced antibody (chain and positions not stated), DAR 3-4) VH: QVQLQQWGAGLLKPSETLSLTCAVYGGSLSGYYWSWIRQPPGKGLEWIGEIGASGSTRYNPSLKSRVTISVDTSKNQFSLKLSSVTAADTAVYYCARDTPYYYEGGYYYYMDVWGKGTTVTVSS VL: EIVLTQSPGTLSLSPGERATLSCRASDSVDSSYLAWYQQKPGQAPRLLIYGAFSRANGIPDRFSGSGSGTDFTLTISRLEPEDFAVYYCQQAGVVPYTFGGGTKVEIK
Return: 0.05 nM
